Test: small-molecule microarray binders of probe aDKK1, primary screen, biochemical, biotinylated probe, 635/667 nm fluorescence (AID 1099);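 also: score merges 667nm spot fluorescence with signal to noise across triplicate slides; reference of the scale not given here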
Details: higher = more signal
MEASURE: composite z-score
A bare number is all that is needed in reply.

# return recorded composite z-score for input COc1ccc([Si](C)(C)[C@H]2[C@H](CC(=O)N3CCC[C@H]3CO)O[C@@]3(C(=O)N(Cc4ccc(N5CCC5=O)cc4)c4ccccc43)[C@@H]2C)cc1
-0.248

# return recorded composite z-score for input CC(=O)n1cc(C(O)C2C=CC3C(=O)N(c4ccccc4)C(=O)C3N2Nc2ccc(C(C)C)cc2)c2ccccc21 (centres undefined)
0.389

# return recorded composite z-score for input NC(=O)N1C(=O)C2C(C1=O)C1C=C(CCCO)C2C(C2CC2)N1Cc1cccc(OC(F)(F)F)c1 (centres undefined)
-0.306

# return recorded composite z-score for input O=C1C[C@@](C(=O)NCC(F)(F)F)(c2ccc([N+](=O)[O-])cc2)[C@@H](c2ccc(CO)cc2)N1CC12CC3CC(CC(C3)C1)C2
1.09

# return recorded composite z-score for input CCCNC(=O)[C@@]1(Sc2ccc(C)cc2)CC(=O)N(C(C)C)[C@@H]1c1ccc(CO)cc1I
0.832

# return recorded composite z-score for input C=CCN1C(=O)[C@]2(O[C@H](CCO)[C@@H]([Si](C)(C)c3ccc(OC)cc3)[C@@H]2C)c2cc(NC(=O)c3ccc(OC)cc3)ccc21
-0.19

# return recorded composite z-score for input C=C(CCCC)/C(=C/C[C@H](OC(C)=O)c1ccc(OCCO)cc1)c1cc(C(=O)OC)ccc1OC
-0.131

# return recorded composite z-score for input COC(=O)C(CC#Cc1ccc2c(c1)[C@]1(C(=O)N2)[C@H](C(=O)Nc2nc3ccccc3s2)[C@H]2C(=O)O[C@H](c3ccccc3)[C@H](c3ccccc3)N2[C@@H]1c1ccc(OCCO)cc1)C(=O)OC
0.277

# return recorded composite z-score for input COc1ccc(C(=O)Nc2cccc(CN3C(=O)[C@]4(O[C@H](CCn5cc([C@H](O)c6ccccc6)nn5)[C@@H]([Si](C)(C)c5ccc(OC)cc5)[C@@H]4C)c4ccccc43)c2)cc1
0.224

# return recorded composite z-score for input COCC(=C=CC[C@@H](O)c1ccc(OCCO)cc1)CCO
-0.0695

# return recorded composite z-score for input COC(=O)[C@@]1(Cc2ccc(F)cc2)[C@H]2c3cc(C(=O)N4CCCC4)n(CC4CC4)c3C[C@H]2CN1C(=O)c1ccccc1
1.15

# return recorded composite z-score for input COCCOC(=O)N1C(=O)[C@@]2(c3cc(C#CC4(O)CCCCCC4)ccc31)[C@H](C(=O)N1CCN(c3ncccn3)CC1)[C@H]1C(=O)O[C@H](c3ccccc3)[C@H](c3ccccc3)N1[C@@H]2c1ccccc1OCCO
-0.0139

# return recorded composite z-score for input CC(C)C(=C=CC[C@H](O)c1cccc(OCCO)c1)CCO
-0.363

# return recorded composite z-score for input NCCCCCNC(=O)[C@@H]1C[C@@H]2C(=O)N3CCC[C@H]3C(=O)N2[C@@H]1c1ccc(O)cc1
0.919

====

Test: PSAC antagonists in infected red cells, primary screen, cell-based, P. falciparum Indochina, OD700, 1 h (AID 1154)
Details: P. falciparum Indochina infected RBC osmotic lysis, called active from +8 up or from −8 down
The source made the active and inactive calls.
// classify into active, inactive

Would you mind telling me which call this test gave COCC(=C=CC[C@@H](O)c1ccc(OCCO)cc1)CCO ?
inactive

Would you mind telling me which call this test gave [N-]=[N+]=NCc1ccccc1C[C@@]1(C(=O)N2CCCCC2)N=C(c2ccc(OCCCO)cc2)O[C@@H]1c1ccccc1CN=[N+]=[N-] ?
active

Would you mind telling me which call this test gave O=C1C2C=CC(C(O)c3cc(C(F)(F)F)cc(C(F)(F)F)c3)N(Nc3ccccc3F)C2C(=O)N1c1ccccc1 (stereo not given) ?
inactive

Would you mind telling me which call this test gave Cc1cccc([C@H]2C[C@H]3C(Br)=C[C@@H]2C(=O)[C@]32CO2)c1 ?
inactive

Would you mind telling me which call this test gave Cc1ccc(S[C@]2(C(=O)NCc3ccccc3)CC(=O)N(Cc3cc(C(F)(F)F)cc(C(F)(F)F)c3)[C@@H]2c2ccc(CO)cc2I)cc1 ?
inactive

Would you mind telling me which call this test gave C=CCC(OC(C)=O)[C@@H]1[C@@H](N(Cc2ccc(-c3cccc(C(F)(F)F)c3)o2)C(=O)Cc2ccc(OC)cc2)c2cc(OCCCO)ccc2N1C(=O)Cc1ccc2ccccc2c1 (stereo not given in full) ?
inactive

Would you mind telling me which call this test gave CC1(C)C(=O)C(c2ccccc2)=C2CN3C(=O)N(CCc4ccccc4)C(=O)C3(Cc3ccc(F)cc3)C=C21 (stereo not given) ?
inactive

Would you mind telling me which call this test gave CN1C(=O)C2C=CC(C(O)c3cc(C(F)(F)F)cc(C(F)(F)F)c3)N(Nc3ccccc3)C2C1=O (stereo not given) ?
inactive

Would you mind telling me which call this test gave CN1C(=O)C2C=CC(C(O)c3cc(C(F)(F)F)cc(C(F)(F)F)c3)N(NC(=O)OC(C)(C)C)C2C1=O (stereo not given) ?
inactive

Would you mind telling me which call this test gave COCCCNC(=O)[C@@]1(Sc2ccc(C)cc2)CC(=O)N(C(C)C)[C@@H]1c1ccc(CO)cc1I ?
inactive

Would you mind telling me which call this test gave C=C(COC)C(=O)CC[C@H](OC(=O)c1cccnc1)c1ccc(CO)o1 ?
inactive

Would you mind telling me which call this test gave O=C1C2C=CC(C(O)c3ccc(I)cc3)N(Nc3ccccc3)C2C(=O)N1c1ccccc1 (stereo not given) ?
inactive

Would you mind telling me which call this test gave COC(=O)[C@@]1(Cc2ccccc2)[C@H]2c3cc(C(=O)N4CCCC4)n(CCSCCO)c3C[C@H]2CN1C(=O)c1ccccc1 ?
inactive

Would you mind telling me which call this test gave COCCOC(=O)N1C(=O)[C@@]2(c3cc(C#Cc4ccc(OC)cc4)ccc31)[C@H](C(=O)NC[C@H](O)c1ccccc1)[C@H]1C(=O)O[C@H](c3ccccc3)[C@H](c3ccccc3)N1[C@@H]2c1ccc(OCCO)cc1 ?
inactive

Would you mind telling me which call this test gave CC(C)=CCCC(C)=CC(O)C1C=CC2C(=O)N(c3ccccc3)C(=O)C2N1Nc1ccccc1F (stereo not given) ?
inactive
